Reference source: ChEMBL document CHEMBL4118162

target: Enoyl-[acyl-carrier-protein] reductase [NADH] (Mycobacterium tuberculosis); assay: Inhibition of Mycobacterium tuberculosis InhA using trans-2-decenoyl-N-acetylcysteamine as substrate preincubated for 1 hr followed by substrate addition measured every 30 secs for 5 mins
Sequence (P9WGR1 whole entry): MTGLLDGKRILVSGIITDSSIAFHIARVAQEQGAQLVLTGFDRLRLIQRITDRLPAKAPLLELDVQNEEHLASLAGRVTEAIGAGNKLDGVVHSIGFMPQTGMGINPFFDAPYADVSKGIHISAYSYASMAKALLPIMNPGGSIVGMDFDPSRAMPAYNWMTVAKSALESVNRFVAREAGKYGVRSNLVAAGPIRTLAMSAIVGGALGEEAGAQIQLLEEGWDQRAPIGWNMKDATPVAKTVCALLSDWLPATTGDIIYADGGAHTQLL
Overview of recorded IC50 for various molecules
quantity kind: IC50

[[record]]
structure_as_smiles = "Fc1ccccc1-c1cc(CNCCc2ccc(Br)cc2)c2cnc3cc(Cl)ccc3n12"
measurement = "48 µM"

[[record]]
structure_as_smiles = "Fc1ccccc1-c1cc(CNCc2ccccc2)c2cnc3cc(Br)ccc3n12"
measurement = "54 µM"


----------
assay: Solubility of the compound in water at 500 ug/mL by HPLC method; assay type: physicochemical
quantity kind: solubility

[[record]]
structure_as_smiles = "Fc1ccc2c(c1)ncc1c(CNCc3ccccc3)cc(-c3ccccc3F)n12"
measurement = "4.9 µg/mL"

[[record]]
structure_as_smiles = "Fc1ccccc1-c1cc(CNCc2ccccc2)c2cnc3cc(Br)ccc3n12"
measurement = "< 2.5 µg/mL"

[[record]]
structure_as_smiles = "CCCCNCc1cc(-c2ccccc2F)n2c1cnc1cc(F)ccc12"
measurement = "8.61 µg/mL"

[[record]]
structure_as_smiles = "CCCCNCc1cc(-c2ccccc2F)n2c1cnc1ccccc12"
measurement = "120 µg/mL"

[[record]]
structure_as_smiles = "Fc1ccccc1-c1cc(CNCc2ccccc2)c2cnc3cc(Cl)ccc3n12"
measurement = "< 2.5 µg/mL"

[[record]]
structure_as_smiles = "CC(C)NCc1cc(-c2ccccc2F)n2c1cnc1ccccc12"
measurement = "70.5 µg/mL"

[[record]]
structure_as_smiles = "Fc1ccccc1-c1cc(CNCCc2ccc(Br)cc2)c2cnc3ccccc3n12"
measurement = "< 2.5 µg/mL"

[[record]]
structure_as_smiles = "Fc1ccccc1-c1cc(CN2CCN(c3ccccc3C(F)(F)F)CC2)c2cnc3cc(Cl)ccc3n12"
measurement = "< 2.5 µg/mL"

[[record]]
structure_as_smiles = "CCN(Cc1ccccc1)Cc1cc(-c2ccccc2F)n2c1cnc1cc(Cl)ccc12"
measurement = "< 2.5 µg/mL"

[[record]]
structure_as_smiles = "CCCNCc1cc(-c2ccccc2F)n2c1cnc1cc(Cl)ccc12"
measurement = "17.5 µg/mL"

[[record]]
structure_as_smiles = "Fc1ccccc1-c1cc(CNCc2c(F)cccc2Cl)c2cnc3cc(Cl)ccc3n12"
measurement = "< 2.5 µg/mL"

[[record]]
structure_as_smiles = "CCCCNCc1cc(-c2ccccc2F)n2c1cnc1cc(Br)ccc12"
measurement = "6.74 µg/mL"

[[record]]
structure_as_smiles = "Fc1ccccc1-c1cc(CNCCc2ccc(Br)cc2)c2cnc3cc(Cl)ccc3n12"
measurement = "< 2.5 µg/mL"

[[record]]
structure_as_smiles = "Fc1ccccc1-c1cc(CN2CCOCC2)c2cnc3cc(Cl)ccc3n12"
measurement = "< 2.5 µg/mL"

[[record]]
structure_as_smiles = "COc1ccc(CCNCc2cc(-c3ccccc3F)n3c2cnc2ccccc23)cc1OC"
measurement = "50.7 µg/mL"

[[record]]
structure_as_smiles = "CC(C)NCc1cc(-c2ccccc2F)n2c1cnc1cc(Cl)ccc12"
measurement = "33.2 µg/mL"

[[record]]
structure_as_smiles = "CCCNCc1cc(-c2ccccc2F)n2c1cnc1ccccc12"
measurement = "73.3 µg/mL"

[[record]]
structure_as_smiles = "Fc1ccccc1-c1cc(CNCc2ccccc2)c2cnc3ccccc3n12"
measurement = "21.1 µg/mL"

[[record]]
structure_as_smiles = "CCCCNCc1cc(-c2ccccc2F)n2c1cnc1cc(Cl)ccc12"
measurement = "20 µg/mL"

[[record]]
structure_as_smiles = "Fc1ccccc1-c1cc(CNCc2c(F)cccc2Cl)c2cnc3ccccc3n12"
measurement = "20.8 µg/mL"

